Answer each item with its documented growth.
System: SF-539 CNS
Assay: NCI-60 one-dose screen, 48 h (100 = growth as untreated, 0 = no growth, -100 = all killed)
Settings: 10 µM unless noted
Compounds without any hit were thinned out: in the full panel of roughly 83,000, 20% have a hit.
Kindly answer with a numeric value in %, unit omitted.

So for C/C(=C\c1ccn(-c2ccc(N)c(C(F)(F)F)c2)n1)[C@@H]1C[C@@H]2O[C@]2(C)CCC[C@H](C)[C@H](O)[C@@H](C)C(=O)C(C)(C)[C@@H](O)CC(=O)O1 , the logged growth turned out to be -8.5

Please fill in: growth reported for CCOC(=O)c1ccccc1C(=O)OCC = 107

So, O=P(O)(Nc1ccccc1)Nc1ccccc1 ? Its growth was 91.6

// growth lookup, compound = COC[C@H]1OC(=O)c2coc3c2[C@@]1(C)C1=C(C3=O)[C@@H]2CCC(=O)[C@@]2(C)C[C@H]1OC(C)=O , result: 28.6

compound C[C@]12CC[C@H]3[C@@H](C[C@@H]4SC(Nc5ccccc5)=N[C@@]45C/C(=N/O)CC[C@]35C)[C@@H]1CCC2=O , growth observed: 44.2

Given item C/C(=C(\c1ccc(OCCN2CCOCC2)cc1)c1ccc(OC(=O)Cc2ccccc2)cc1)c1ccc(Cl)cc1 , the value recorded as its growth is 98.2

Lab note: measured growth of Cc1cc(N(CCCl)CCCl)ccc1C=Nc1ccc(-c2csc(-c3ccccc3)n2)cc1 was 74.4

For reference, reported growth for COC12CC3C4=CCOC5CC(=O)N6c7ccccc7C1(CCN2C4)C6C53 (stereo not drawn) stands at 100

* * *

System: MDA-MB-231 breast
Assay: NCI-60 one-dose screen, 48 h (100 = growth as untreated, 0 = no growth, -100 = all killed)
Conditions: 10 µM unless noted
This is part of a sample that, as a whole, favours compounds with a hit. Of some 83,000 tested, about 20% had one in any assay.
REPORTED_ENDPOINT: growth (%)
# unit: % | format: bare number

The value of growth recorded for C[C@]12CCC3[C@@H](C[C@@H]4SC(Nc5ccccc5)=N[C@@]45CC(=O)CC[C@]35C)[C@@H]1CCC2=O (some centres undefined) when tested on MDA-MB-231 breast reads 5.67

// returns growth for Cc1cc[c-]cc1.Fc1c[c-]c(-c2ccccn2)c(F)c1.N#CCC[PH+](CCC#N)c1ccccc1.[Pt+2] with MDA-MB-231 breast; value = 13.7

Sample COC[C@H]1OC(=O)c2coc3c2[C@@]1(C)C1=C(C3=O)[C@@H]2CCC(=O)[C@@]2(C)C[C@H]1OC(C)=O , system: MDA-MB-231 breast. Its growth is 67.8

Entry Cc1ccc(S(=O)(=O)n2cc([C@@]3(O)C[C@H](CSC#N)OC3=O)c3ccccc32)cc1 , tested on MDA-MB-231 breast, has a reported growth of 55.3

* * *

System: NCI/ADR-RES ovarian
Assay: NCI-60 one-dose screen, 48 h (100 = growth as untreated, 0 = no growth, -100 = all killed)
Conditions: 10 µM unless noted
Compounds without any hit were thinned out: in the full panel of roughly 83,000, 20% have a hit. The source made the active and inactive calls. How the source made its calls: active means growth percent below 10; inactive means the rest.
Provide the reported growth of each item.

Record summary for C[C@]12CC[C@H]3[C@@H](CC=C4c5nc(N)sc5CC[C@@]43C)[C@@H]1CC[C@@H]2O : reported growth = 102% (inactive)

Data point: N[C@@H](CCC(=O)CCl)C(=O)O ; growth = 104% [20 µM] (inactive)

// recorded growth for CC[C@H](C)[C@H](NC(=O)CN(C)C)C(=O)N(C)[C@H](C[C@@H](OC(C)=O)c1nc(C(=O)NC23C4C5C2C2C3C4C52C(=O)OC)cs1)C(C)C (some centres not stated) : 63.7% (inactive)

growth reading for N#CC(NC(=O)CCl)=C(Cl)Cl : 11.8% (inactive)

Memo: CC[PH+](CC)CC.O=COC1OC([S-])C(OC=O)C(OC=O)C1OC=O.[Au+] (configuration not stated) , reported growth: 18.7% (inactive)

# growth (molecule: Cc1c(C)c(N)c(C)c(C)c1N ) is 96.1% (inactive)

Record CC1=C([Te]c2ccccc2)C(=O)c2ccccc2C1=O , field growth: -23.1% (active)

The molecule identified as N#CCCc1ccccc1 registered its growth at 104% (inactive)

growth recorded for this molecule, Oc1cc(Cl)ccc1Oc1ccc(Cl)cc1Cl , is 7.74% (active)

molecule c1ccc2c(c1)sc1ccccc12 , growth observed: 99.4% (inactive)

Consider COc1ccn(C)c(=O)c1C#N . Its measured growth is 102% (inactive)

Given item Cc1ccc(P(=O)(O)O)cc1 , the value recorded as its growth is 106% (inactive)

* * *

Test system: KM12 colon
Assay: NCI-60 one-dose screen, 48 h
Settings: 10 µM unless noted
About 83,000 compounds went through this panel and 20% of them were active in at least one assay; those are over-represented in the sample as a whole. Calls of active or inactive are those of the source. How the source made its calls: active means growth percent below 10; inactive means the rest.
Bench note: report the call from t (active), f (inactive)

Q: Status in this test for C[C@]12CCc3sc(Nc4ccc(F)cc4F)nc3C1=CC[C@@H]1[C@@H]2CC[C@]2(C)C(=O)CC[C@@H]12 ?
A: f

Q: # outcome recorded in this test, key = O=C(Cc1ccccc1)c1ccccc1
A: f

Q: Would you mind telling me which call this test gave COc1ccc(C(C#N)C(C)=O)cc1 (centres undefined) ?
A: f

Q: Returns: the outcome recorded for CCCCCCCCCCCCCCCCCC1OCC(COC(=O)O[C@@H](C(=O)O[C@H]2C[C@@]3(O)[C@@H](OC(=O)c4ccccc4)[C@@H]4[C@]5(OC(C)=O)CO[C@@H]5C[C@H](O)[C@@]4(C)C(=O)[C@H](OC(C)=O)C(=C2C)C3(C)C)[C@@H](NC(=O)c2ccccc2)c2ccccc2)O1 (some centres undefined) in this assay.
A: f

Q: Identify the outcome logged in this assay for the compound shown: CNC(=O)Oc1ccc(Cl)cc1SSc1cc(Cl)ccc1OC(=O)NC
A: f

Q: Identify the outcome logged in this assay for the compound shown: CC(Oc1ccc(-c2ccccc2)cc1)C(=O)O (centres undefined)
A: f

Q: Field: outcome | Entry: C/C(=C(\c1ccc(OCCN2CCOCC2)cc1)c1ccc(OC(=O)Cc2ccccc2)cc1)c1ccc(Cl)cc1
A: f

Q: Tell me the recorded outcome of this test for Cc1cc2c(cc1-c1ccnc(/C=C/C(=O)O)c1)C(C)(C)CCC2(C)C .
A: f

Q: Write down the call the test reported for this compound. Item: CC1(C)N=C(N)N=C(N)N1c1ccc(CCC(=O)Nc2ccc(S(=O)(=O)F)cc2)cc1
A: f

Q: Look up the recorded call for c1ccc(CCN2CCCCC2)nc1 in this test.
A: f

Q: # outcome recorded in this test, key = Cc1c2ccncc2c(C)c2c1[nH]c1ccccc12
A: t

Q: Answer briefly: the call reported for [N-]=[N+]=CC(=O)CCC(=O)C=[N+]=[N-] in this assay.
A: f

Q: I would be grateful if you could indicate the recorded call for C[C@H](O)CCC(=O)c1ccoc1 .
A: f

Q: How was Nc1ccc(S(=O)(=O)F)cc1 classified in this test?
A: f

Q: GET /call?item= C#Cc1cccc(Nc2nc(Cl)nc3cc(NC(=O)CF)ccc23)c1 returns the recorded outcome of this test.
A: f

Q: Entry O=S(OO)c1cc(Cl)c(O)c(Cl)c1 (centres undefined) : call = ?
A: f

Q: What is the recorded call for this compound in the test? C[C@]12CC[C@H]3[C@@H](CC=C4c5nc(N)sc5CC[C@@]43C)[C@@H]1CC[C@@H]2O
A: f

Q: Would you mind telling me which call this test gave CC1(C)C=Cc2c(ccc3c2[N+]([O-])=C2C3=C[C@@]34NC(=O)[C@]5(CCCN5C3=O)C[C@@H]4C2(C)C)O1 ?
A: f

Q: Hi, sorry to bother you, what did the test record for NC(=O)Oc1cc(OC(N)=O)cc(N(CCCl)CCCl)c1 ?
A: f

Q: Dear colleague, could you share the recorded outcome for CC[C@H](C)[C@H](NC(=O)C12CC(NC)(C1)C2)C(=O)N(C)[C@H](C[C@@H](OC(C)=O)c1nc(C(=O)N[C@@H](Cc2ccccc2)C[C@H](C)C(=O)OC)cs1)C(C)C when you have a moment?
A: t

Q: Any idea what this test logged for COC12CC3(C)C(C4=CC(=O)OC4)CCC3(O)C3CCC4=CC(=O)CCC4(CO1)C32 (centres undefined) ?
A: f

Q: # outcome recorded in this test, key = O=C(NC1=NCC[Se]1)c1ccccc1O
A: f

Q: Which outcome was entered for the compound CC[C@H](C)[C@H](NC(=O)CN(C)C)C(=O)N(C)[C@H](C[C@@H](OC(C)=O)c1nc(C(=O)NC23C4C5C2C2C3C4C52C(=O)OC)cs1)C(C)C (some centres undefined) in this test?
A: f

Q: // return assay outcome for CC12CCC3C(CCC4CC(O)CCC43C)C1CCC2=O (centres undefined)
A: f

Q: Could you kindly confirm the outcome this assay logged for CC1OC(=O)C(C(C)C)NC(=O)C(C(C)C)OC(=O)C(C(C)C)NC(=O)C(C)OC(=O)C(C(C)C)NC(=O)C(C(C)C)OC(=O)C(C(C)C)NC(=O)C(C)OC(=O)C(C(C)C)NC(=O)C(C(C)C)OC(=O)C(C(C)C)NC1=O (centres undefined) ?
A: t

Q: # outcome recorded in this test, key = O=S(=O)(F)c1cccc(Cl)c1C[P+](c1ccccc1)(c1ccccc1)c1ccccc1
A: f

Q: Fill in: this test's call for CC1(C)S[C@H]2CC[C@H]3OC(=O)[C@@H]1N23 is ___
A: f

Q: Please state the recorded outcome for this compound: N#CCc1ccc(CC#N)cc1
A: f

Q: Can you look up the reported call for O=C1C=C(N2CC2)c2ccccc2C1=O for me?
A: f

Q: Status in this test for CCN(CC)CCn1c(=O)n(C)c2ccccc21 ?
A: f

Q: How was CCOC(=O)c1cncn1C(C)c1ccccc1 (centres undefined) classified in this test?
A: f

Q: Status in this test for O=Cc1cn(Cc2ccccc2)c2ccccc12 ?
A: f

Q: How did this test come out for CO[C@@H]([CH2][Hg][O]C(=O)c1ccccc1)[C@@H]([CH2][Hg][O]C(=O)c1ccccc1)OC ?
A: f

Q: Kindly provide the recorded test outcome for the following compound: CCC(Br)(CC)C(=O)NC(N)=O
A: f

Q: Check the results log: what was the call for Cc1cc(NC(=O)NCCCOc2ccc(N3C(N)=NC(N)=NC3(C)C)cc2Cl)ccc1S(=O)(=O)F ?
A: f

Q: Dear all, I need the recorded test outcome for COc1cc(-c2ccc(N)c(OC)c2)ccc1N , thank you.
A: f

Q: GET /call?item= CC[C@H](C)[C@H](NC(=O)CN(C)C)C(=O)N(C)[C@H](C[C@@H](OC(C)=O)c1nc(C(=O)NC23CC(C(=O)OC)(C2)C3)cs1)C(C)C returns the recorded outcome of this test.
A: f

Q: Entry ClC1OC(Cl)(Cl)C(Cl)(Cl)OC1(Cl)Cl (centres undefined) : call = ?
A: f

Q: Field: outcome | Entry: C[Se]/C=C1/C(=O)N(c2c(Cl)cccc2Cl)c2ccccc21
A: f
